# protocolText: folding enthalpy; higher = less favourable; fluorescence melt of hairpins on a sequencing array, two-state fit
# appliedConditions: sodium 0.088 M
measuredMetric: folding enthalpy (kcal/mol)
Response body: numeric value in kcal/mol, unit text excluded.

> print(dat)
                                residues    measuredmetric  unitslabel  datavalue
1  GCATGCGAAAGCAATTGC ((((((....)))..)))  folding enthalpy    kcal/mol      -19.5

Exercise: Which folding enthalpy is reported for this sequence? GCTTCGCGAAAGCGATGC ((.((((....)))).))
Key: -17.4

Exercise: Which folding enthalpy is reported for this sequence? GATCTGATCACAGATC ((((((....))))))
Key: -36.8

Exercise: Which folding enthalpy is reported for this sequence? GGGAACGAAAGTTACCC ((((((....))).)))
Key: -30

Exercise: Which folding enthalpy is reported for this sequence? GCCGTCGAAAGACCAGGC ((((((....)))..)))
Key: -17.5

Exercise: Which folding enthalpy is reported for this sequence? GGCCTCGAAAGAGGAGCC ((((((....)))..)))
Key: -14.5

Exercise: Which folding enthalpy is reported for this sequence? GCCCGGCGAAAGCTTGGC (((..((....))..)))
Key: -18.8

Reference source for all entries: the array DNA melting data of Ke et al. (doi:10.1101/2024.01.08.574731)
